system: Plasmodium berghei; test: Screen against P. berghei liver stage (PbLuc), transformed with Luciferase, at 2uM; type: functional, HepG2; settings: tested at 2 uM
Screen size: about 68,000 compounds; about 2,700 (4%) showed an effect of 50% or more. For the sample, strong results were picked, then their nearest neighbours and some compounds at random.
Some compounds, each annotated with its measured INHIBITION.

| compound | INHIBITION (%) |
| --- | --- |
| CC(C)(O)CCc1ccc(C(=O)NCC2CCCOC2)cc1 (stereo not drawn) | 42.27 |
| COCCN1CCN(CCCS(=O)(=O)N(C)C)CC1C (stereo not drawn) | 25.35 |
| CN(C)CC1(O)CCCN(C(=O)c2ccccc2-n2cccn2)C1 (stereo not drawn) | -6.64 |
